ASSAY_SYSTEM: Prolyl endopeptidase (Mus musculus) (UniProt Q9QUR6)
Sequence (Q9QUR6 whole entry, looked up): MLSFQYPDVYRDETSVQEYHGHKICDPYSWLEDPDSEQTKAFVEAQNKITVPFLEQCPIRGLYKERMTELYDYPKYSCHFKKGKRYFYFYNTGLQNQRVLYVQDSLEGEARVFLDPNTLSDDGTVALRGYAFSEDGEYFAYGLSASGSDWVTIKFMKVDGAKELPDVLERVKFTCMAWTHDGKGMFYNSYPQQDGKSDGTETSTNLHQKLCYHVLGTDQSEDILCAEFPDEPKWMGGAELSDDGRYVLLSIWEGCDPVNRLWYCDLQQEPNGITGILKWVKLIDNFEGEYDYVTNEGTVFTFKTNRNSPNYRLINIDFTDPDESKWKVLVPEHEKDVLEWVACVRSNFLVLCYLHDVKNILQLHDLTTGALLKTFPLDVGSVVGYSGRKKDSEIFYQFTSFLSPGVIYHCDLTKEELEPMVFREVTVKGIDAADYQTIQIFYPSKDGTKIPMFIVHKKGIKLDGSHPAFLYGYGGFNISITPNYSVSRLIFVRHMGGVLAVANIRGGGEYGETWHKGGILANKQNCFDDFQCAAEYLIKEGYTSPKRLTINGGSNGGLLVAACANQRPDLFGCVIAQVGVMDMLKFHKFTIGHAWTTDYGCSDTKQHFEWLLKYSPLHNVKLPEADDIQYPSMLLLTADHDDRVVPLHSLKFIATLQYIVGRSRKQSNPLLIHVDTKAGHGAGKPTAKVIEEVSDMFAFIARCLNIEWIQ
EXPERIMENT_SUMMARY: competitive ABPP of Abhd10 versus anti-targets – biochemical, fluorescence, gel-based, mouse proteome, selectivity assay for PME-1 inhibitor project, late-stage follow-up (AID 588807)
REPORTED_CONDITIONS: PREP, anti-target, at 10 µM, hits give high values
Calls of active or inactive are those of the source. The rule behind the calls is not given here.
OBSERVATION_TYPE: inhibition

Completed entries (count: 3):
{"COMPOUND_STRUCTURE_STRING": "CCOC(=O)N1C(=O)[C@@](CC)(c2ccc(C)cc2)N1C(=O)OCC", "inhibition": "65% (inactive)"}
{"COMPOUND_STRUCTURE_STRING": "C=CCOC(=O)N1N(C(=O)OC)C(=O)[C@@]1(CC)c1cccc(C)c1", "inhibition": "70% (inactive)"}
{"COMPOUND_STRUCTURE_STRING": "CC[C@@]1(c2cccc(OC)c2)C(=O)N(C(=O)OC)N1C(=O)OC", "inhibition": "0% (inactive)"}

Log: Prolyl endopeptidase (Mus musculus) (UniProt Q9QUR6), compound `CC[C@]1(c2cccc(C)c2)C(=O)N(C(=O)OC(C)C)N1C(=O)OC(C)C` , inhibition = 0% (inactive)

Log: Prolyl endopeptidase (Mus musculus) (UniProt Q9QUR6), compound `COC(=O)N1C(=O)[C@](c2ccccc2)(C2CCCC2)N1C(=O)OC` , inhibition = 0% (inactive)

###

System: Magl
EXPERIMENT_SUMMARY: competitive ABPP of Abhd10 versus anti-targets – biochemical, fluorescence, gel-based, mouse proteome, selectivity assay for PME-1 inhibitor project, late-stage follow-up (AID 588807)
REPORTED_CONDITIONS: anti-target, at 10 µM, hits give high values
Classify as follows. Reported inhibition greater than or equal to 20%: yes (1). Reported inhibition below: no (0).

Known results for molecules:
{"COMPOUND_STRUCTURE_STRING": "CC[C@@]1(c2ccc(OC)cc2)C(=O)N(C(=O)OC(C)C)N1C(=O)OC(C)C", "CLASSIFICATION": "no (0)"}
{"COMPOUND_STRUCTURE_STRING": "CC[C@@]1(c2cccc(C)c2)C(=O)N(C(=O)OCC(Cl)(Cl)Cl)N1C(=O)OCC(Cl)(Cl)Cl", "CLASSIFICATION": "no (0)"}
{"COMPOUND_STRUCTURE_STRING": "CC[C@@]1(c2ccccc2)C(=O)N(C(=O)OC)N1C(=O)OC", "CLASSIFICATION": "no (0)"}
{"COMPOUND_STRUCTURE_STRING": "CC[C@@]1(c2cccc(F)c2)C(=O)N(C(=O)OC)N1C(=O)OC", "CLASSIFICATION": "yes (1)"}
{"COMPOUND_STRUCTURE_STRING": "CC[C@@]1(c2ccc(Cl)c(Cl)c2)C(=O)N(C(=O)OC(C)C)N1C(=O)OC(C)C", "CLASSIFICATION": "yes (1)"}
{"COMPOUND_STRUCTURE_STRING": "CCOC(=O)N1C(=O)[C@@](C)(c2cccc(C)c2)N1C(=O)OCC", "CLASSIFICATION": "no (0)"}
{"COMPOUND_STRUCTURE_STRING": "CC[C@@]1(c2ccc(Cl)c(Cl)c2)C(=O)N(C(=O)OC)N1C(=O)OC", "CLASSIFICATION": "no (0)"}
{"COMPOUND_STRUCTURE_STRING": "C=CCOC(=O)N1C(=O)[C@@](CC)(c2ccc(C)cc2)N1C(=O)OCC=C", "CLASSIFICATION": "yes (1)"}

IN: Could you verify whether the entry `CC[C@]1(c2ccc(C)cc2)C(=O)N(C(=O)OC(C)C)N1C(=O)OC(C)C` shows inhibition of no less than 20%?
OUT: no (0)
